# Measurement target: Mu-type opioid receptor (Bos taurus)
# Sequence (P79350 whole entry): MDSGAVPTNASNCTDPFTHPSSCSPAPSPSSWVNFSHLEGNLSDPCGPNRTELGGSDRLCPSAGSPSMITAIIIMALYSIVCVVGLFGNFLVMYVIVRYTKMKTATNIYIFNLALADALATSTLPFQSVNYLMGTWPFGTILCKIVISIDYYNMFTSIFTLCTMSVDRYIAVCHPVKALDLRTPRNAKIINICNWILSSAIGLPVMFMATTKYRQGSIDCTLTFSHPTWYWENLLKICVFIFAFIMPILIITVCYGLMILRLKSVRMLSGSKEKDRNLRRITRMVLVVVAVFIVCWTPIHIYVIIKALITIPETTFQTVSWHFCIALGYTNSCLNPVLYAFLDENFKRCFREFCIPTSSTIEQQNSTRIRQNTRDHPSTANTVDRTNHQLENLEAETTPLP
pIC50: −log10 of the molar value.
Would you please tag the item class 1 when its pIC50 is 9 or above, and class 0 when it is below?

Is pIC50 at least 9? Consider C=C(C)C(=O)O[C@H]1CC[C@@]2(O)[C@H]3Cc4ccc(O)c5c4[C@@]2(CCN3CC2CC2)[C@H]1O5
class 0

For the next question, use this compound.
Is pIC50 at least 9? Consider C=C(COC1CCC2(O)C3Cc4ccc(O)c5c4[C@@]2(CCN3CC2CC2)C1O5)C(=O)OC (stereo not given in full)
class 1

====

Measured IC50 (Mu-type opioid receptor (Bos taurus, UniProt P79350))
Use nM as the unit, but write only the number.

Solved entries (count: 2):
API: value(readout=IC50, system=Mu-type opioid receptor (Bos taurus, UniProt P79350)) for record C=C(C)C(=O)OC1CCC2(O)C3Cc4ccc(O)c5c4[C@@]2(CCN3CC2CC2)C1O5 (stereo partly drawn)
1

Again, but for C=C(CO[C@@H]1CC[C@@]2(O)[C@H]3Cc4ccc(O)c5c4[C@@]2(CCN3CC2CC2)[C@H]1O5)C(=O)OC
1.5

We next turn to a different molecule, shown below.
API: value(readout=IC50, system=Mu-type opioid receptor (Bos taurus, UniProt P79350)) for record C=C1CC2(CCC3(O)[C@H]4Cc5ccc(O)c6c5[C@@]3(CCN4CC3CC3)C2O6)OC1=O (stereo partly drawn)
1.8
